Read-out record for B. anthracis DHFR (Bacillus anthracis): Ki

- COMPOUND: "CCC(C)C1c2ccccc2C=NN1C(=O)/C=C/c1cc(Cc2cnc(N)nc2N)cc(OC)c1OC (racemic)"
  Ki: "10.4 nM"
- COMPOUND: "COc1cc(Cc2cnc(N)nc2N)cc(/C=C/C(=O)N2N=Cc3ccccc3C2c2ccccn2)c1OC (racemic)"
  Ki: "9 nM"
- COMPOUND: "CCC1c2ccccc2C=NN1C(=O)/C=C/c1cc(Cc2cnc(N)nc2N)cc(OC)c1OC (racemic)"
  Ki: "6.8 nM"
- COMPOUND: "COc1cc(Cc2cnc(N)nc2N)cc(/C=C/C(=O)N2N=Cc3ccccc3C2c2ccco2)c1OC (racemic)"
  Ki: "5.9 nM"
- COMPOUND: "COc1cc(Cc2cnc(N)nc2N)cc(/C=C/C(=O)N2N=Cc3ccccc3C2C2CC2)c1OC (racemic)"
  Ki: "4.9 nM"
- COMPOUND: "COc1cc(Cc2cnc(N)nc2N)cc(/C=C/C(=O)N2N=Cc3ccccc3C2c2cccs2)c1OC (racemic)"
  Ki: "8.4 nM"
- COMPOUND: "CCOC(=O)CC1c2ccccc2C=NN1C(=O)/C=C/c1cc(Cc2cnc(N)nc2N)cc(OC)c1OC (racemic) [11b]"
  Ki: "24.9 nM"
- COMPOUND: "CCCCC1c2ccccc2C=NN1C(=O)/C=C/c1cc(Cc2cnc(N)nc2N)cc(OC)c1OC (racemic)"
  Ki: "7.9 nM"
- COMPOUND: "COC(=O)CC1c2ccccc2C=NN1C(=O)/C=C/c1cc(Cc2cnc(N)nc2N)cc(OC)c1OC (racemic) [11c]"
  Ki: "20 nM"
- COMPOUND: "COc1cc(Cc2cnc(N)nc2N)cc(/C=C/C(=O)N2N=Cc3ccccc3C2C)c1OC (racemic)"
  Ki: "8.8 nM"
- COMPOUND: "COc1cc(Cc2cnc(N)nc2N)cc(/C=C/C(=O)N2N=Cc3ccccc3C2CC(=O)OC(C)(C)C)c1OC (racemic) [11a]"
  Ki: "59 nM"
